Each entry below lists one item and its recorded log10(IC50) value.
Test system: IL-12 activation of STAT4 in NK-92 cells
Assay: IL-12 activation of STAT4 in NK-92 cells using AphaLISA SureFire technology
Type: cell-based
Conditions: Homo sapiens, NK92; IL-12 activation of STAT4 in NK-92 cells, AlphaLISA SureFire; average IC50; read-out: IL12 pSTAT4 IC50
log10 IC50, nM

The following compounds have reported results that may help.
>>> print(df.to_string())
                                   compound  reported_value
0  Cc1cc(C#N)ncc1Oc1cc(Nc2ccc(C(=O)N3CC(OC(C)C)C3)cn2)c2ncn(C)c2n1 [Compound 137]            1.95
1  Cc1cc(C#N)ncc1Oc1cc(Nc2ccc(C(=O)N3CCN(C4CC4)CC3)cn2)c2ncn(C)c2n1 [Compound 48]            1.75
2  Cc1cc(C#N)ncc1Oc1cc(Nc2ccc(N3CCOC(CO)C3)nn2)c2ncn(C)c2n1 (stereo not shown) [Compound 169]            2.82
3  CC1COCCC1N(C)c1cc(Nc2cc(N)ncn2)c2ncn(C)c2n1 (stereo not shown) [Compound 19]            1.86
4  Cc1cc(C#N)ncc1N(c1cc(Nc2cc(N)ncn2)c2ncn(C)c2n1)C1CC1 [Compound 88]            1.34

input: Using the record for Cc1cc(C#N)ncc1Oc1cc(Nc2ccc(N3CCO[C@H](C)C3)nn2)c2ncn(C)c2n1 [Compound 172] , report its log10(IC50).
output: 1.76

input: Using the record for Cc1cc(C#N)ncc1Oc1cc(Nc2ccc(N3C[C@@H]4C[C@H]3CO4)nn2)c2ncn(C)c2n1 [Compound 174] , report its log10(IC50).
output: 1.79

input: Using the record for Cc1cc(C#N)ncc1Oc1cc(Nc2ccc(N3CCO[C@@H](C)C3)nn2)c2ncn(C)c2n1 [Compound 44] , report its log10(IC50).
output: 1.70

input: Using the record for Cc1cc(C#N)ncc1Oc1cc(Nc2ccc(N3C[C@H](C)O[C@@H](C)C3)nn2)c2ncn(C)c2n1 [Compound 166] , report its log10(IC50).
output: 1.99

input: Using the record for Cc1cc(C#N)ncc1Nc1cc(Nc2ccc(C(=O)N(C)C)cn2)c2ncn(C)c2n1 [Compound 67] , report its log10(IC50).
output: 1.73

input: Using the record for Cc1cc(C#N)ncc1Oc1cc(Nc2ccc(C(=O)N3CC(O)C3)nn2)c2ncn(C)c2n1 [Compound 115] , report its log10(IC50).
output: 2.99

input: Using the record for Cc1cc(C#N)ncc1Oc1cc(Nc2ccc(C(=O)N3CC(C)(O)C3)cn2)c2ncn(C)c2n1 [Compound 119] , report its log10(IC50).
output: 2.42

input: Using the record for Cc1cc(C#N)ncc1Oc1cc(Nc2cnn(C)c2)c2ncn(C)c2n1 [Compound 61] , report its log10(IC50).
output: 2.34

###

Each entry below lists one item and its recorded IC50 value.
Molecular target: Recombinant human TYK2 catalytic domain (amino acids 871-1187) (Homo sapiens)
Construct: catalytic domain (amino acids 871-1187)
Experiment: TYK2 radioactive assay polyGT substrate; also: 0.1 µM ATP
Assay type: biochemical
Report only the number, with the unit nM understood.

In [3]: df
Out[3]:
                                   molecule  output_unit  reported_value
0  Cc1cc(C#N)ncc1Oc1cc(Nc2ccc(C(=O)N3CCC(N(C)C(=O)OC(C)(C)C)C3)cn2)c2ncn(C)c2n1 (centres unmarked)           nM            4.67

input: Using the record for Cc1cc(C#N)ncc1Oc1cc(Nc2ccc(C(=O)N3CC(O)C3)cn2)c2ncn(C)c2n1 , report its IC50.
output: 2.51

input: Using the record for Cc1cc(C#N)ncc1Oc1cc(Nc2ccc(N3CCN(C)CC3)cn2)c2ncn(C)c2n1 , report its IC50.
output: 5.54

input: Using the record for Cc1cc(C(F)(F)F)ncc1Oc1cc(Nc2cc(N)ncn2)c2ncn(C)c2n1 , report its IC50.
output: 10.1

input: Using the record for Cc1cc(C#N)ncc1Oc1cc(Nc2ccc(C(=O)N3CCC4(COC4)C3)cn2)c2ncn(C)c2n1 , report its IC50.
output: 2.87

input: Using the record for Cc1cc(C#N)ncc1Oc1cc(Nc2ccc(N3C[C@H]4C[C@@H]3CN4C)nn2)c2ncn(C)c2n1 , report its IC50.
output: 12.5

input: Using the record for Cc1cc(C#N)ncc1Oc1cc(Nc2ccc(N3CCNCC3)cn2)c2ncn(C)c2n1 , report its IC50.
output: 6.61

input: Using the record for Cc1cc(C#N)ncc1Oc1cc(Nc2cc(NCC3COCCO3)ncn2)c2ncn(C)c2n1 (centres unmarked) , report its IC50.
output: 2.3

###

Target: Recombinant human TYK2 catalytic domain (amino acids 871-1187) (Homo sapiens)
Construct: catalytic domain (amino acids 871-1187)
Sequence (P29597 871-1187): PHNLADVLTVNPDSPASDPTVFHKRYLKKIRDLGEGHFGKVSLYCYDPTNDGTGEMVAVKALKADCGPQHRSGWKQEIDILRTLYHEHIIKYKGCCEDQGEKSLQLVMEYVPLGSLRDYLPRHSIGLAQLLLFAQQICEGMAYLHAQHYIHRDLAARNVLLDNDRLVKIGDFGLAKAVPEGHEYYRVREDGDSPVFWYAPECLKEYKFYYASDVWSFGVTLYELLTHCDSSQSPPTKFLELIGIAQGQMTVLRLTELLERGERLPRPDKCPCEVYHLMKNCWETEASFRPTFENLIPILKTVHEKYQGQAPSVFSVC
Assay: TYK2 radioactive assay polyGT substrate; also: 0.1 µM ATP
Assay type: biochemical
reported.property: IC50

In [3]: df
Out[3]:
                                   compound  reported_value
0  Cc1cc(C#N)ncc1Oc1cc(Nc2ccc(C(=O)N3CC(CN(C)C)C3)cn2)c2ncn(C)c2n1 [Compound 132]         8.93 nM
1  C[C@H](C1CC1)N(C)c1cc(Nc2cc(N)ncn2)c2ncn(C)c2n1 [Compound 16]         13.4 nM
2  Cc1cc(C#N)ncc1Oc1cc(Nc2ccc(C(=O)N3CCN(C(=O)OC(C)(C)C)CC3)cn2)c2ncn(C)c2n1 [Compound 128]         5.87 nM

Now turn to the next compound.
input: Using the record for CCNC(=O)c1ccc(Nc2cc(Oc3cnc(C#N)cc3C)nc3c2ncn3C)nc1C [Compound 78] , report its IC50.
output: 9.69 nM
